settings: 298.15 K; 101.33 kPa; Liquid; Vibrating tube method
Overview of reported mass density across a group of molecules:
measured quantity: mass density (kg/m3)

1) CCCCCCCCCCCCCC[P+](CCCCCC)(CCCCCC)CCCCCC.[Cl-] [trihexyl(tetradecyl)phosphonium chloride] ... 891.82
2) CC(CC(C)(C)C)CP(=O)([O-])CC(C)CC(C)(C)C.CCCCCCCCCCCCCC[P+](CCCCCC)(CCCCCC)CCCCCC ... 886.43
3) CCOC(C)(C)C [2-ethoxy-2-methylpropane] ... 735.85
4) CCO [ethanol] ... 785.22

---

experiment: refractive index (Na D-line) (dimensionless); details: 298.15 K; 101.33 kPa; Liquid; Standard Abbe refractometry
Listed here are compounds together with their documented refractive index.
measured quantity: refractive index

1) CCOC(C)(C)C ... 1.37358
2) CCCCCCCCCCCCCC[P+](CCCCCC)(CCCCCC)CCCCCC.[Cl-] [trihexyl(tetradecyl)phosphonium chloride] ... 1.48175
3) CC(CC(C)(C)C)CP(=O)([O-])CC(C)CC(C)(C)C.CCCCCCCCCCCCCC[P+](CCCCCC)(CCCCCC)CCCCCC ... 1.47125
4) CCO ... 1.35925

Where these numbers come from: the NIST ThermoML archive (doi:10.1016/j.fluid.2013.01.022)
